# System: PC-3
# assayDetails: Cytotoxicity against human PC3 cells assessed as cell survival after 48 hrs by MTT assay
# Type: functional
# conditionInfo: PC-3, 48 h, read-out: LC50 (the source's name)
Response field label: string, one of 1 (yes) (CC50 strictly below 6 µM) or 0 (no).

Look over these answered cases.
INSERT INTO measurements (molecule, assignedlabel) VALUES
  ('CN(c1ccccc1)c1oc2ccc(Cl)cc2c(=O)c1C=O', '1 (yes)'),
  ('O=Cc1c(Nc2ccccc2)oc2ccccc2c1=O', '0 (no)'),
  ('O=Cc1c(Nc2ccccc2)oc2ccc(F)cc2c1=O', '0 (no)');

Read the next record carefully.
-- ask Quick check: does COc1cc([C@@H]2c3cc4c(cc3[C@@H](O[C@@H]3O[C@@H]5CO[C@@H](C)O[C@H]5[C@H](O)[C@H]3O)[C@H]3COC(=O)[C@H]23)OCO4)cc(OC)c1O [ETOPOSIDE] have CC50 under 6 µM?
-- reply 0 (no)
